assay: Henry solubility constant Hcp at 298.15 K (mol/(m3 Pa)); conditions: reference: Copolovici and Niinemets (2015)
reported_endpoint: Henry solubility constant Hcp

{"compound": "C/C1=C\\CC/C(C)=C/CC(C)(C)/C=C/C1 [α-humulene]", "numeric_result": 0.00029}
{"compound": "CC(=O)O[C@H]1C[C@H]2CC[C@]1(C)C2(C)C [bornyl acetate]", "numeric_result": 0.00038}
{"compound": "C=C(C)C1CCC2=CCCC(C)C2(C)C1 (stereo not given) [valencene]", "numeric_result": 0.00032}
{"compound": "C=C(C)[C@H]1C=C2[C@H](C)CC[C@@H]2[C@H](C)CC1 [γ-gurjunene]", "numeric_result": 0.00033}
{"compound": "CC1=CCC2C3C1C2(C)CCCC3(C)C (stereo not drawn) [α-longipinene]", "numeric_result": 0.00034}
{"compound": "C=C/C(C)=C/C/C=C(\\C)CCC=C(C)C [α-farnesene]", "numeric_result": 0.00034}
{"compound": "CC1=CCCC2(C)C3CCC12CC3(C)C (stereo not drawn) [α-neoclovene]", "numeric_result": 0.00029}
{"compound": "C=C1[C@H]2C[C@H]3[C@@H](C(C)C)CC[C@]1(C)[C@H]3C2 [isosativene]", "numeric_result": 0.00039}
{"compound": "C=CC(C)(O)CC/C=C(\\C)CCC=C(C)C (stereo not given) [nerolidol]", "numeric_result": 0.00032}
{"compound": "CC1C=CCC2(C)C3CCC12CC3(C)C (stereo not given) [γ-neoclovene]", "numeric_result": 0.00029}

----------
test: Henry solubility constant Hcp at 298.15 K (mol/(m3 Pa)); details: reference: Copolovici and Niinemets (2015)
reported_endpoint: Henry solubility constant Hcp

{"compound": "CC1=CCC23C[C@H]1C(C)(C)[C@H]2CC[C@@H]3C", "Henry solubility constant Hcp": 0.00028}
{"compound": "C=C1CC/C=C(\\C)CC[C@H]2[C@H]1CC2(C)C", "Henry solubility constant Hcp": 0.00037}
{"compound": "C=C1CCCC2(C)C3CCC12CC3(C)C (stereo not drawn)", "Henry solubility constant Hcp": 0.00029}
